Test system: IGROV1 ovarian
experimentalDetails: NCI-60 one-dose screen, 48 h
conditionContext: 10 µM unless noted
About 83,000 compounds went through this panel and 20% of them were active in at least one assay; those are over-represented in the sample as a whole. Active and inactive are the calls of the source. The calls were made as follows: active = growth percent below 10; inactive = the rest.
Write down one outcome, taken from active, inactive

> print(dat)
                                   compound     class
1  COc1cc(OC)cc(C(=O)Nc2cc(-c3cccnc3)nc(NCCCN3CCOCC3)n2)c1  inactive

What did this assay record as the result for CCCCC(CCCCCC(CCCC)C1NC(C)Cc2cc(OC)c(OC)cc21)C1NC(C)Cc2cc(OC)c(OC)cc21 (stereo not given) ?
active

Then this compound: `COc1cc2c(=O)[nH]c3cc([N+](=O)[O-])ccc3c2cc1[N+](=O)[O-]`
inactive

Then this compound: `C=C(C)[C@@H]1CC[C@]2(COCCC#N)CC[C@]3(C)[C@H](CC[C@@H]4[C@@](C)(CCCNCCC#N)[C@H](C(=C)C)CC[C@]43C)[C@@H]12`
active

Then this compound: `O=C1/C(=C\c2cccn2Cc2ccccc2)c2ccccc2N1c1c(Cl)cccc1Cl`
inactive

###

Below, each entry is listed with its recorded growth.
Tested on: PC-3 prostate
experimentalDetails: NCI-60 one-dose screen, 48 h (100 = growth as untreated, 0 = no growth, -100 = all killed)
conditionContext: 10 µM unless noted
This is part of a sample that, as a whole, favours compounds with a hit. Of some 83,000 tested, about 20% had one in any assay. Activity calls are given as the source filed them. How the source made its calls: active means growth percent below 10; inactive means the rest.

Below, 5 compounds whose answers are already recorded.
> print(dat)
                                   compound     valueobserved
1  CCOC(=O)c1nn(C2CCCCO2)c2ccc(NC(=O)CN3CCCC3)cc12 (stereo not drawn)   107% (inactive)
2  COc1cc(C)cc2oc3oc(=O)c(C(=O)c4cc5cc(Br)ccc5o4)cc3c(=O)c12   102% (inactive)
3  CCCN1CC(c2ccc(OC)c(OC)c2)=C(c2cn(C(=O)OCC)c3ccccc23)C1=O  32.4% (inactive)
4   Cn1cc(-c2nnc(-c3ccccc3)s2)c2cc(Br)cnc21  84.9% (inactive)
5       CCCCCN(CCCCC)CCCCCCCCN1CCCc2ccccc21  79.5% (inactive)

Can you share its growth? I mean this compound: Fc1cc2[nH]ncc2c2c3c(c(-c4cn[nH]c4C(F)(F)F)nc12)C1CCC3C1 (stereo not drawn)
14% (inactive)

Then this compound: `C#CCNC(=O)CC[C@@H](C)[C@H]1CC[C@H]2[C@@H]3CC[C@@H]4CC(=O)CC[C@]4(C)[C@H]3CC[C@]12C`
-14.6% [100 µM] (active)

Then this compound: `COc1ccc(-c2cc(-c3ccccc3)nc(NCCNc3ccnc4cc(Cl)ccc34)n2)cc1`
-81.8% (active)

Then this compound: C#CC(OC(=O)N(C)C)(c1ccccc1)c1ccc(F)cc1 (stereo not drawn)
102% (inactive)

###

Test system: RXF 393 renal
experimentalDetails: NCI-60 one-dose screen, 48 h (100 = growth as untreated, 0 = no growth, -100 = all killed)
conditionContext: 10 µM unless noted
Compounds without any hit were thinned out: in the full panel of roughly 83,000, 20% have a hit. Active and inactive are the calls of the source. How the source made its calls: active means growth percent below 10; inactive means the rest.
measuredParameter: growth

Below, 8 compounds whose answers are already recorded.
> print(dat)
                                   compound  measuredparameter              valueobserved
1  C=C(C)[C@@H]1CC[C@]2(C(N)=O)CC[C@]3(C)[C@H](CC[C@@H]4[C@@]5(C)C/C(=C/c6cccnc6)[C@H](O)C(C)(C)[C@@H]5CC[C@]43C)[C@@H]12             growth  13.4% [100 µM] (inactive)
2  CC1(C)CC(=O)c2c(ccc(C(=O)C[C@@H](N)CO)c2N)O1             growth           16.6% (inactive)
3  COc1ccc(OC)c([N+](=O)[O-])c1C(=O)CNC(C)=O             growth            101% (inactive)
4  c1ccc(-c2nc(N3CCCNCC3)c3nc(-c4ccccc4)oc3n2)cc1             growth           27.1% (inactive)
5  CC1Cc2c(ncnc2-n2cnc3ccccc32)N(C)c2ccccc21 (centres undefined)             growth             34% (inactive)
6  CCOC(=O)c1ccc2nc(-c3c(C)nn(-c4ccccc4)c3N3CCOCC3)[nH]c2c1             growth           92.1% (inactive)
7  CCOC(=O)c1c[nH]c2cc(OCC3CC3)c(OCC3CC3)cc2c1=O             growth            114% (inactive)
8                        CS(=O)(=O)c1cccnn1             growth            102% (inactive)

Can you share its growth? I mean this compound: `O=C(Nc1ccc(Cl)c(C(F)(F)F)c1)Nc1ccc(-c2cccnc2)cc1N1CCC(CO)CC1`
26.2% (inactive)

Then this compound: `CC1(C)CC[C@]2(C(=O)O)CC[C@]3(C)[C@H](CC[C@@H]4[C@@]5(C)CCC(=O)C(C)(C)[C@@H]5CC[C@]43C)[C@H]2[C@H]1OC(=O)C(F)(F)F`
-82.1% [100 µM] (active)

Then this compound: `O=C(N/N=C1\c2ccccc2-c2cccc(C(=O)O)c21)c1ccc(O)cc1`
97.6% (inactive)

Then this compound: `CC(C)CSc1ncnc2nc[nH]c12`
92.3% (inactive)

Then this compound: `Fc1ccc(NC(=S)c2ccccc2)cc1`
109% (inactive)

Then this compound: `CCOC(=O)Nc1ccc2c(c1)/C(=N\NC(=S)NC)c1ccccc1-2`
7.59% (active)

Then this compound: `Cc1ccc(C2=C/C(=C/c3ccc(Br)cc3)C(=O)N2CCc2ccc(S(N)(=O)=O)cc2)cc1`
90% (inactive)

Then this compound: `Nc1ccc(NC(=O)c2ccccc2)c2c1C(=O)c1ccccc1C2=O`
106% (inactive)

Then this compound: COc1ccccc1S(=O)Nc1ccccc1 (centres undefined)
100% (inactive)

Then this compound: `O=[N+]([O-])c1ccc(O)c(-c2nc3ccccc3s2)c1`
107% (inactive)

Then this compound: `COc1ccc(-c2ccc(NNC(=O)c3ccc(F)cc3)nn2)cc1OC`
19.5% (inactive)
